TARGET OR SYSTEM: T1, UNK ZnF1-3 (human, UniProt Q9C0B0 31-174)
T1 sequence: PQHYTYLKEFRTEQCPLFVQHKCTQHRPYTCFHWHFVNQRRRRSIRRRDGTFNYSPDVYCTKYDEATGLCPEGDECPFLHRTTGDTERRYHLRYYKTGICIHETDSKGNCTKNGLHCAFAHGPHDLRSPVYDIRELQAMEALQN
TEST PROTOCOL: nsRBNS (natural sequence RNA bind-n-seq); RBNS binding buffer (assumed for nsRBNS): 25 mM Tris pH 7.5, 150 mM KCl, 3 mM MgCl2, 0.01% Triton X-100, 500 ug/ml BSA, 20 U/ml SUPERase-In, 4 C; UNK is unkempt and MSI1 is Musashi-1; names of the RNAs are library labels; protein concentration not given here; high values mean tight binding
Over roughly 24,000 sequences, “enrichment r” has its median near 0.99; the highest 2% begin near 3.7. The sample holds the highest values, similar sequences and a random draw of the others, so the mix is not that of the screen.
Assign class by binding signal: not lower than 0.9 enrichment R means T; lower than 0.9 enrichment R means F.

The following binders have reported results that may help.
{"BINDER": "chr7:149838571:149838572:-_ENSMUSG00000048583_ENSMUST00000000033|mus_mus|motif|central (ssRNA) RNA: GGGAGUUCUACAGUCCGACGAUCCAUGUAUCACUUGGCAGUGCCAUCUCCUUAUCUGGCCAAACUUAUUCUACACUGGCGGGUCAUUGGUCCUCAUGGCGGGGGUGGUUGGGGAGCACCGGGCUCACCAUGUGGACAGGUGCUCAACAGAGGAUUGAGCAUCA", "GROUP": "F"}
{"BINDER": "chr7:141441981:141441982:+_ENSG00000106028_ENST00000265304|hu_mus|hu_hu_hu_mus_False|58_58 (ssRNA) RNA: GGGAGUUCUACAGUCCGACGAUCCUCAUGUCUUACAAACUGACGAAAUACCUGUAACACAGGUCUUCGAAACAUGGCUUCUAUUUUUCUUACAACCUAAUCUUUAGGCUUUUCCUAAAGGAAAGAAAGAAAAGAGAAAAAUGACAACAGAGGAUUGAGCAUCA", "GROUP": "F"}
{"BINDER": "chr2:216981417:216981418:+_ENSG00000079246_ENST00000392132|hu_hu|hu_hu_hu_mus_True|8_48 (ssRNA) RNA: GGGAGUUCUACAGUCCGACGAUCCUGAUACUGGUCCUUGCCAGCAAGGGCAUUAUCAGUGCCAUCUGUGCCAUAGAGGACUAACGCAAUCUCAUCCUUGCUCUCCGAAAAUACCUGUCGUUGGACAAACAUGGUUAUCACUUUCAACAGAGGAUUGAGCAUCA", "GROUP": "F"}
{"BINDER": "9430860_9430980_9933_3pUTR_ENSMUSG00000040209_ENSMUST00000041124|mouse|control|control (ssRNA) RNA: GGGAGUUCUACAGUCCGACGAUCUUUAAAAAGAACCAACUACUAUUUGACUCUAACCCAAUCCUUCAGUAUCUGGUAUGCGCUUUGUUUUUUCCCUUGCUAACACUAGGCCCUUUCUGUGCACUGCCAGCCAAGCACAGGCAGCAACAGAGGAUUGAGCAUCA", "GROUP": "T"}
{"BINDER": "chr5:128440902:128440903:+_ENSG00000066583_ENST00000173527|hu_mus|hu_hu_hu_mus_True|38_48 (ssRNA) RNA: GGGAGUUCUACAGUCCGACGAUCUUGAACGGUGCUGCCAAGUCCUUUGGGGUAUUGUUCCGUUAUGAUAACUGGAAUCCCUAAGAUCCGGGCCCCUUGCAACAAUCUCUGUCCCACACUAAUGAUGUCCCCAAAGUAUUUGAUCAACAGAGGAUUGAGCAUCA", "GROUP": "F"}

Lab note: next binder to report on.
Please indicate if the recorded binding signal for chrX:40988281:40988282:+_ENSG00000124486_ENST00000378308|hu_mus|FALSE|FALSE (ssRNA) RNA: GGGAGUUCUACAGUCCGACGAUCUUCAAUCUGUGGAGGAGCAUCACCUUGACCUUGCUCAUCAGGAGGAGUUGCAGGGGAAUUUUCAUUGGACGAAUCAGGCGAUGAAGUCUGAUUCUGUUGGAGGGGGGGCUGAGACUGUCCCAACAGAGGAUUGAGCAUCA meets or exceeds 0.9 enrichment R. T
